biological target: Metabotropic glutamate receptor 5 (Rattus norvegicus)
Sequence (P31424 whole entry): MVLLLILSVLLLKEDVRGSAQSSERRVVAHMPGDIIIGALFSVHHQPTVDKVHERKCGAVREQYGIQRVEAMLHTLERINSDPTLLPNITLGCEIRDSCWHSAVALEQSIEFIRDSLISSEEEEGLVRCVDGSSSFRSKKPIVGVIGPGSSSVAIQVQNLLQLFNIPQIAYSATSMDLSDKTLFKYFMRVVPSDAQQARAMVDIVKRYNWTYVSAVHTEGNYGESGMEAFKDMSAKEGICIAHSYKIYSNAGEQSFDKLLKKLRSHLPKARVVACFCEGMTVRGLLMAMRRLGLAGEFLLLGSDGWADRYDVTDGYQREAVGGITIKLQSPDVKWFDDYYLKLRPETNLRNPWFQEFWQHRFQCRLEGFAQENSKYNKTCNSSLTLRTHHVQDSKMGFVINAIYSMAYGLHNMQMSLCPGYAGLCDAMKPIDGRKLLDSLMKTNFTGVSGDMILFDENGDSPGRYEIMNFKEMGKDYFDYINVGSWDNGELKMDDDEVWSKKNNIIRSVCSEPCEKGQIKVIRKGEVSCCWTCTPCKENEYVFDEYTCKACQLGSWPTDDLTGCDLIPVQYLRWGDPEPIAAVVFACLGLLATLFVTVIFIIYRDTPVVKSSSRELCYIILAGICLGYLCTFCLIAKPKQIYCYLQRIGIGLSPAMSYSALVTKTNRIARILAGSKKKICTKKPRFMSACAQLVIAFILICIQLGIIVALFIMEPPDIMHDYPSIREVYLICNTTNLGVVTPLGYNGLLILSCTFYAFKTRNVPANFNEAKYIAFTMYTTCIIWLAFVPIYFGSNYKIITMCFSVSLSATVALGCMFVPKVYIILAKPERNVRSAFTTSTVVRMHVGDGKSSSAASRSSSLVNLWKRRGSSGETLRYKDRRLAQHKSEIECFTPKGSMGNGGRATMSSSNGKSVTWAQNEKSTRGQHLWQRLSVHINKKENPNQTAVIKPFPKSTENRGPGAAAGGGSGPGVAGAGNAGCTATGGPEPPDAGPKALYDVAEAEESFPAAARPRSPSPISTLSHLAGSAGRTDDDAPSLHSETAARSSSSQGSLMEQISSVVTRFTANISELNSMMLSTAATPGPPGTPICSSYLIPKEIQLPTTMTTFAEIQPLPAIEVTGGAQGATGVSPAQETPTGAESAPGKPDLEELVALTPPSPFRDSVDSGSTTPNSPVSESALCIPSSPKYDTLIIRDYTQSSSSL
parameter: Ki (nM)
Please reply with the bare figure in nM and do not write the unit itself.

Under Metabotropic glutamate receptor 5 (Rattus norvegicus), report Ki for `Cc1nc(C#Cc2ccc(-c3ccccc3C#N)nc2)cs1`
2.6
